Origin of values: paper PMC3684613

# System: P. falciparum 3D7
# Assay: DAPI stain fluorescent high content imaging assay, P. falciparum 3D7 (confirmatory screen, Avery)
# Test Parameters: Plasmodium falciparum, 3D7, read-out: EC50_nM
Parameter: EC50 (µM)

CCOC(=O)c1cnc2ccc(Cl)cc2c1NCCCN(C)C ... 1.19
O=C(NCc1ccco1)C1CCN(S(=O)(=O)c2ccc(Br)cc2)CC1 ... 0.939
CCOC(=O)c1ccc2nc(-c3ccccc3)cc(O)c2c1 ... 0.118
CCCCCCc1cc(O)c2c3c(c(=O)oc2c1)CCC(C)C3 (stereo not shown) ... 0.534
O=C1c2ccccc2C2=Nc3ccccc3SC(c3cccc(F)c3)C12 (stereo not shown) ... 0.415
COc1ccc2nc(C)cc(Nc3ccc(Cl)cc3)c2c1 ... 2
O=C(Nc1ccc(C23CC4CC(CC(c5ccccc5)(C4)C2)C3)cc1)c1cccs1 ... 0.826
O=C(NC1CCCCC1)C(c1cccs1)N(CCc1ccccc1)C(=O)c1ccco1 (stereo not shown) ... 1.07
COc1ccc(CCn2c(=N)c(C(=O)NCc3cccnc3)cc3c(=O)n4cccc(C)c4nc32)cc1 ... 0.373
COc1cccc(Nc2nc(NCCO)c3ccccc3n2)c1 ... 0.854
CC(=O)Nc1nnc(SCc2c(C)cc(C(C)(C)C)cc2C)s1 ... 0.871
CCOc1ccc(-c2nonc2NC(=O)c2cccc(C)c2)cc1OCC ... 0.117
CCc1c(C)c(=N)c2ccccc2n1C ... 0.378
CCOC(=O)c1c(C)n(-c2ccccc2)c2ccc(OC(=O)c3cc(OC)c(OC)c(OC)c3)cc12 ... 0.615
CCC(C)NCC(O)(c1ccc(Cl)cc1)c1ccc(Cl)cc1 (stereo not shown) ... 0.642
Cc1cc(NC(=O)C2c3ccccc3C(=O)N(CC(C)C)C2c2cccs2)no1 (stereo not shown) ... 0.0328
CCN(CC)CCNc1ccnc2cc(Cl)ccc12 ... 0.0581
Cc1sc2ncnc(Sc3nc4ccccc4[nH]3)c2c1C ... 0.615
COc1ccc(-c2nc(N3CCN(C(=O)C4CCCCC4)CC3)c3c4c(sc3n2)CCCC4)cc1 ... 1.06
COc1ccc2c(c1)OC(O)(C(F)(F)C(F)(F)F)CC2=O (stereo not shown) ... 0.283
COc1ccc(C=C2SC(=N)N(c3ccccc3OC)C2=O)cc1 ... 0.168
OC(CNC1CCCCC1)Cn1c2ccccc2c2ccccc21 (stereo not shown) ... 0.293
Cc1ccc(-c2cc3nc4c(c(O)n3n2)CCCC4)cc1 ... 0.396
COc1cccc(Cn2c(Oc3ccccc3)nc3c2c(=O)n(C)c(=O)n3C)c1 ... 1.39
Oc1ccc2ccccc2c1CNc1nc2ccccc2[nH]1 ... 0.646
COc1cc2c3cc1Oc1c(OC)c(OC)cc4c1C(Cc1ccc(O)c(c1)Oc1ccc(cc1)CC3N(C)CC2)N(C)CC4 (stereo not shown) ... 1.27
COc1ccc(NC(=O)C2c3ccccc3C(=O)N(CC(C)C)C2c2cccs2)cc1Cl (stereo not shown) ... 0.0202
COc1ccc(-n2ccnc2SCC(=O)Nc2cc(C)ccc2C)c(OC)c1 ... 0.17
CCc1ccc(Nc2cc(C)c3ccc(O)cc3n2)cc1 ... 0.194
COCCN(C(=O)Cc1cccs1)C(C(=O)NCc1ccc(OC)cc1)c1ccc(C(C)C)cc1 (stereo not shown) ... 1.19
c1ccc(-c2ccc(-c3nc4ccccc4[nH]3)cc2)cc1 ... 1.07
COc1ccc2c(c1)C1(Nc3ccccc3-c3nc4ccccc4n31)C(=O)N2 (stereo not shown) ... 0.928
N=c1n(CCN2CCCCC2)c2ccccc2n1CC(=O)c1ccc(Cl)c(Cl)c1 ... 1.24
COc1ccc(C2NCCc3c2[nH]c2ccccc32)cc1CN1CCN(c2ccc(F)cc2)CC1 (stereo not shown) ... 0.934
COc1ccccc1N1C(=N)SC(=Cc2ccc(OCc3ccccc3F)cc2)C1=O ... 0.478
COc1ccc(C=C2SC(Nc3ccc(F)cc3)=NC2=O)c(OC)c1 ... 0.591
CCOC(=O)c1c(C)n(-c2ccc(Cl)cc2)c2ccc(OC(=O)C=Cc3ccccc3)cc12 ... 0.215
